Tested on: A498 renal
Assay: NCI-60 one-dose screen, 48 h (100 = growth as untreated, 0 = no growth, -100 = all killed)
Conditions: 10 µM
About 83,000 compounds went through this panel and 20% of them were active in at least one assay; those are over-represented in the sample as a whole.
Below is a list of entries, each paired with its recorded growth value.
Give just the numeric value; % need not be written.

[[record]]
compound = "O=C1C=C(Nc2ccc([N+](=O)[O-])cc2)c2ccccc2C1=O"
measured = 40.6

[[record]]
compound = "COCCCNC(=O)c1nnn2c1nc(N)c1cc(Cl)ccc12"
measured = 96.4

[[record]]
compound = "Cc1cc(/C=C/c2ccc3cc(N(C)C)ccc3[n+]2C)c(C)n1-c1ccccc1"
measured = -25

[[record]]
compound = "CN(C)CCC(=O)c1ccc(O)cc1"
measured = 99.4

[[record]]
compound = "NCCCN"
measured = 114


Param request: growth | system A498 renal | item c1ccc(/C(=N\N=C(/c2ccccc2)c2cccs2)c2cccs2)cc1
102

Param request: growth | system A498 renal | item O=c1[nH][nH]c(=O)c2cc([N+](=O)[O-])ccc12
117

Param request: growth | system A498 renal | item CC1=CC(C)(C)NC(=S)N1c1ccc(S(=O)(=O)O)c2cccc(S(=O)(=O)O)c12
97.6

Param request: growth | system A498 renal | item CC1OC(Oc2c(-c3ccc(O)c(O)c3)oc3cc(O)cc(O)c3c2=O)C(O)C(O)C1O (stereo not drawn)
99.5

Param request: growth | system A498 renal | item C/C(O)=C(\C=N\C(N)=S)C(=O)Nc1ccccc1
98.6

Param request: growth | system A498 renal | item CC1(c2ccccc2)NC(=O)NC1=O (stereo not drawn)
123

Param request: growth | system A498 renal | item C/C=C/CC(C)C(O)C1C(=O)NC(CC)C(=O)N(C)CC(=O)N(C)C(CC(C)C)C(=O)NC(C(C)C)C(=O)N(C)C(CC(C)C)C(=O)NC(C)C(=O)NC(C)C(=O)N(C)C(CC(C)C)C(=O)N(C)C(CC(C)C)C(=O)N(C)C(C(C)C)C(=O)N1C (stereo not drawn)
-5.73

// data source = PubChem BioAssay (NCI)
